# study target: HERV-K reverse transcriptase (2-596)-8His protein (Homo sapiens)
# Sequence (V9H0F6 entry or part of it): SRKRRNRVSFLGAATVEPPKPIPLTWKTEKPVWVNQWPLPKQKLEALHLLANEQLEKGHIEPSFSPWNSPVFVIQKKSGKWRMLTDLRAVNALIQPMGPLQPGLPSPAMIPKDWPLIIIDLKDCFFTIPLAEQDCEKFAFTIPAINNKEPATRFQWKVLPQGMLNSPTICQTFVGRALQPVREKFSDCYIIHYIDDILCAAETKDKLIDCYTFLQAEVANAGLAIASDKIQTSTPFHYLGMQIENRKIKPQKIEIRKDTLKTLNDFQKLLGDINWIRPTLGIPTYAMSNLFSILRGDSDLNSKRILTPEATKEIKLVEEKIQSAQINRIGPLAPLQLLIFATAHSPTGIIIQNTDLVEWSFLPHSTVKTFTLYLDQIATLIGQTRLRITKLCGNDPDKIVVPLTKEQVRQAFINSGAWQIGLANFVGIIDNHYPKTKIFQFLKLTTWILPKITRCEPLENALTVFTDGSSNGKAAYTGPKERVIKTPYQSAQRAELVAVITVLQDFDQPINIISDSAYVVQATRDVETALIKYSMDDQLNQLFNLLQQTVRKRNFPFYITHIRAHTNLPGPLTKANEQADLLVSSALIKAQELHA
readout name: pIC50
One number for each entry, as −log10 of the molar value.

What pIC50 value was documented for this compound, Nc1ncnc2c1ncn2[C@@H]1O[C@H](OCP(=O)(O)OP(=O)(O)OP(=O)(O)O)C=C1F ?
6.92

----------
# study target: LINE1 reverse transcriptase (Homo sapiens, UniProt O00370)
# assay name: Transient artificial-intron Cis LINE1 reporter assay (FLuc/RLuc ratio)
# Format: cell-based
# Set-up: expressed in transfected cells
# condition notes: HEK 293 cells, transient transfection, FIG. 1; read-out: IC50 for inhibition of FLuc (FF/RR)
readout name: pIC50
Give bare numbers, as −log10 of the molar value.

API: value(readout=pIC50, system=LINE1 reverse transcriptase (Homo sapiens, UniProt O00370)) for record Nc1ncnc2c1ncn2[C@@H]1O[C@H](OCP(=O)(O)O)C=C1F
6.00

----------
# study target: recombinant MBP-tagged LINE1 protein (238-1061) (Homo sapiens, UniProt O00370)
# Construct: recombinant MBP-tagged LINE1 protein (238-1061)
# assay name: Homogeneous time-resolved fluorescence (HTRF) LINE1 RT assay
# condition notes: tested as tri(ammonium) salt, read-out: IC50 for inhibition of LINE1 reverse transcriptase
# Experimental: The LINE1 reverse transcriptase homogeneous time-resolved fluorescence (HTRF) assay was performed with recombinant MBP-tagged LINE1 protein (238-1061) (generated and purified according to procedures in Dai L. et al. BMC Biochemistry 2011; 12:18) in a 384-well format. Test compound was serially diluted in DMSO and further diluted in the assay buffer (50 mM Tris-HCl, 50 mM KCl, 10 mM MgCl2, 10 mM DTT, pH 8.1) to achieve a final DMSO concentration of 1%. […]
readout name: IC50 (µM)
One number for each entry, in µM.

API: value(readout=IC50, system=recombinant MBP-tagged LINE1 protein (238-1061) (Homo sapiens, UniProt O00370)) for record Nc1ncnc2c1ncn2[C@@H]1O[C@H](OCP(=O)(O)OP(=O)(O)OP(=O)(O)O)C=C1F
0.1

----------
# study target: LINE1 reverse transcriptase (Homo sapiens, UniProt O00370)
# assay name: Transient artificial-intron Cis LINE1 reporter assay (FLuc/RLuc ratio)
# Format: cell-based
# Parameters: expressed in transfected cells
# condition notes: HEK 293 cells, transient LINE1 reporter, Table 5 of Example 1; read-out: IC50
pIC50: −log10 of the molar value.
readout name: pIC50

1. CCOC(=O)[C@H](C)N[P@@](=O)(CO[C@@H]1C=C(F)[C@H](n2cnc3c(N)ncnc32)O1)Oc1ccccc1 [II-2] ... > 7.30

Now for another entry.
What pIC50 value was documented for this compound, CCOC(=O)[C@H](C)N[P@](=O)(CO[C@@H]1C=C(F)[C@H](n2cnc3c(N)ncnc32)O1)Oc1ccccc1 [II-1] ?
> 7.30

----------
# study target: LINE1 reverse transcriptase (Homo sapiens, UniProt O00370)
# assay name: Stable artificial-intron Cis LINE1 reporter assay in HeLa Tet-On 3G cells
# Format: cell-based
# Design: expressed in transfected cells; host or cells: HeLa Tet-On 3G (Takara, cat no 631183)
# condition notes: HeLa L1 artificial-intron reporter cells, doxycycline induced, 72 h, Firefly luciferase; read-out: IC50
pIC50: −log10 of the molar value.
readout name: pIC50

# annotated cases, reported pIC50 shown
1. Nc1nc(F)nc2c1ncn2[C@@H]1O[C@H](OCP(=O)(O)O)C=C1F ... < 6.30
2. Nc1ncnc2c1ncn2[C@@H]1O[C@H](OCP(=O)(O)O)C=C1F ... < 6.30

// for each molecule in input: emit pIC50
1. CCOC(=O)[C@H](C)N[P@](=O)(CO[C@@H]1C=C(F)[C@H](n2cnc3c(N)ncnc32)O1)Oc1ccccc1
2. CCOC(=O)[C@H](C)N[P@@](=O)(CO[C@@H]1C=C(F)[C@H](n2cnc3c(N)ncnc32)O1)Oc1ccccc1

1. > 7.30
2. > 7.30
